# Assayed System: HCV-NS5b (Hepatitis C virus genotype 1b, UniProt Q9WMX2)
# Construct: (His)6 (C); made in house; host or cells: XL-1 cells (E. coli), IPTG-inducible plasmid, nickel-NTA purification
# Experiment Description: HCV-NS5b enzyme assay (incorporation of radiolabeled UTP)
# Type: biochemical
# Particulars: read-out: % inh@100, enzyme inhibition at compound concentration of 100 uM
The entries below are paired with their reported inhibition at 100 µM.
Express your answer in %, writing the number without its unit.

> print(dat)
                              smiles.record  recorded.measurement
1  O=C(O)c1ccc2c(c1)nc(-c1ccc3nc(-c4ccccc4)cc(NCCCn4ccnc4)c3c1)n2C1CCCCC1                  95.6

Lab note: need inhibition at 100 µM for COc1ccc(-c2ccc(Cl)cc2)c(-c2ccc3cc(-c4nc5cc(C(=O)O)ccc5n4CCN(C)C)ccc3n2)c1 on HCV-NS5b (Hepatitis C virus genotype 1b, UniProt Q9WMX2), anyone have it? 89.8

Provide the documented inhibition at 100 µM with HCV-NS5b (Hepatitis C virus genotype 1b, UniProt Q9WMX2) as the system for COc1cccc(-c2nc3ccc(-c4nc5cc(C(=O)O)ccc5n4C4CCCCC4)cc3nc2-c2cccc(OC)c2)c1 98.2

Quick check: inhibition at 100 µM on HCV-NS5b (Hepatitis C virus genotype 1b, UniProt Q9WMX2), item COc1ccc(-c2ccc(N(C)C)cc2)c(-c2ccc3cc(-c4nc5cc(C(=O)O)ccc5n4C4CCCCC4)ccc3n2)c1 ? 101

Provide value of inhibition at 100 µM for this record tested with HCV-NS5b (Hepatitis C virus genotype 1b, UniProt Q9WMX2): CCOc1ccc(-c2ccc(OC)cc2-c2ccc3cc(-c4nc5cc(C(=O)O)ccc5n4C4CCCCC4)ccc3n2)cc1 99.7

# get_value(readout= inhibition at 100 µM, system= HCV-NS5b (Hepatitis C virus genotype 1b, UniProt Q9WMX2)) for O=C(O)c1ccc2c(c1)nc(-c1ccc3nc(-c4ccc(-n5ccnc5)cc4)ccc3c1)n2C1CCCCC1 97.4

What inhibition at 100 µM appears in the records for this compound with HCV-NS5b (Hepatitis C virus genotype 1b, UniProt Q9WMX2)? NC(=O)[C@H](Cc1cnc[nH]1)NC(=O)c1ccc2cc(-c3nc4cc(C(=O)O)ccc4n3C3CCCCC3)ccc2n1 79.5

* * *

# Assayed System: HCV-NS5b (Hepatitis C virus genotype 1b, UniProt Q9WMX2)
# Construct: (His)6 (C); made in house; host or cells: XL-1 cells (E. coli), IPTG-inducible plasmid, nickel-NTA purification
# Experiment Description: HCV-NS5b enzyme assay (incorporation of radiolabeled UTP)
# Assay type: biochemical
# Particulars: read-out: % inh@100, enzyme inhibition at compound concentration of 100 uM
Measurement Kind: inhibition at 100 µM (%)
Numbers only here, please. The scale is %.

Please review the following examples before continuing.
> print(dat)
                                    compound      measurement.kind  recorded.measurement
 1  COc1ccc(-c2ccc(Cl)cc2)c(-c2ccc3cc(-c4nc5cc(C(=O)O)ccc5n4CC4CCCO4)ccc3n2)c1 (stereo not drawn)  inhibition at 100 µM                   100
 2  CC(C)N(C(=O)c1ccc2cc(-c3nc4cc(C(=O)O)ccc4n3C3CCCCC3)ccc2n1)c1ccc(Cl)cc1  inhibition at 100 µM                   102
 3  O=C(O)c1ccc2c(c1)nc(-c1ccc3cc(-c4ccccc4)cnc3c1)n2C1CCCCC1  inhibition at 100 µM                  98.1
 4  O=C(O)c1ccc2c(c1)nc(-c1ccc3nc(-c4cc(O)ccc4-c4ccccc4)ccc3c1)n2C1CCCCC1  inhibition at 100 µM                   101
 5  O=C(O)c1ccc2c(c1)nc(-c1ccc3nc(-c4ccc5c(c4)OCO5)ccc3c1)n2C1CCCCC1  inhibition at 100 µM                   100
 6  O=C(O)c1ccc2c(c1)nc(-c1ccc3nc(-c4cc(-c5ccc(Cl)c(Cl)c5)no4)ccc3c1)n2C1CCCCC1  inhibition at 100 µM                   102
 7  COc1ccc(-c2ccc(Cl)cc2)c(-c2ccc3cc(-c4nc5cc(C(=O)O)ccc5n4CC(C)C)ccc3n2)c1  inhibition at 100 µM                  98.2
 8  CN(C)CCNC(=O)c1ccc(-c2ccc(Cl)cc2)c(-c2ccc3cc(-c4nc5cc(C(=O)O)ccc5n4C4CCCCC4)ccc3n2)c1  inhibition at 100 µM                   100
 9  CNC(=O)c1ccc(-c2ccc(Cl)cc2)c(-c2ccc3cc(-c4nc5cc(C(=O)O)ccc5n4C4CCCCC4)ccc3n2)c1  inhibition at 100 µM                   101
10  CSCC[C@H](NC(=O)c1ccc2c(c1)nc(-c1ccc3nc(-c4ccccc4)cnc3c1)n2C1CCCCC1)C(=O)O  inhibition at 100 µM                  88.3

Find the measured inhibition at 100 µM: item O=C(c1ccc2c(c1)nc(-c1cc3ccc(-c4ccccc4-c4ccccc4)nc3cc1F)n2C1CCCCC1)N1CCC(O)CC1 , target or system HCV-NS5b (Hepatitis C virus genotype 1b, UniProt Q9WMX2). 88.6

Which inhibition at 100 µM is reported with HCV-NS5b (Hepatitis C virus genotype 1b, UniProt Q9WMX2) for this entry: Cc1ccc2cc(-c3ccc4cc(-c5nc6cc(C(=O)O)ccc6n5C5CCCCC5)ccc4n3)ccc2c1 ? 101

Under HCV-NS5b (Hepatitis C virus genotype 1b, UniProt Q9WMX2): inhibition at 100 µM value of O=C(N[C@@H](Cc1c[nH]cn1)C(=O)O)c1ccc2c(c1)nc(-c1ccc3nc(-c4ccccc4)cnc3c1)n2C1CCCCC1 ? 94.2

What is its inhibition at 100 µM for HCV-NS5b (Hepatitis C virus genotype 1b, UniProt Q9WMX2)? Entry: CCOCCOc1ccc(-c2ccc(Cl)cc2)c(-c2ccc3cc(-c4nc5cc(C(=O)O)ccc5n4C4CCCCC4)ccc3n2)c1 101

Quick check: inhibition at 100 µM on HCV-NS5b (Hepatitis C virus genotype 1b, UniProt Q9WMX2), item O=C(O)c1ccc2c(c1)nc(-c1ccc3nc(-c4cc(O)ccc4-c4ccc(Cl)cc4)ccc3c1)n2C1CCCCC1 ? 101

# query: inhibition at 100 µM | item O=C(O)CC[C@H](NC(=O)c1ccc2c(c1)nc(-c1ccc3nc(-c4ccccc4)cnc3c1)n2C1CCCCC1)C(=O)O | system: HCV-NS5b (Hepatitis C virus genotype 1b, UniProt Q9WMX2) 97.4

Provide value of inhibition at 100 µM for this record tested with HCV-NS5b (Hepatitis C virus genotype 1b, UniProt Q9WMX2): Cc1cc(-c2nc3cc(C(=O)O)ccc3n2C2CCCCC2)cc2ccc(-c3ccccc3-c3ccccc3)nc12 97.8

Return inhibition at 100 µM measured with HCV-NS5b (Hepatitis C virus genotype 1b, UniProt Q9WMX2) given this compound: Cc1nc(N)sc1-c1ccc2cc(-c3nc4cc(C(=O)O)ccc4n3C3CCCCC3)ccc2n1 97.5

* * *

# Assayed System: HCV-NS5b (Hepatitis C virus genotype 1b)
# Construct: (His)6 (C); made in house; host or cells: XL-1 cells (E. coli), IPTG-inducible plasmid, nickel-NTA purification
# Experiment Description: HCV-NS5b enzyme assay (incorporation of radiolabeled UTP)
# Type: biochemical
# Particulars: enzyme inhibition at compound concentration of 33 uM
Measurement Kind: inhibition at 33 µM
# number then unit; no other words

Below, each entry is followed by its recorded inhibition at 33 µM result.
> print(dat)
                                   compound  recorded.measurement
1  COc1ccc(-c2ccc(Cl)cc2)c(-c2ccc3cc(-c4nc5cc(C(=O)O)ccc5n4C4CCNCC4)ccc3n2)c1                 32.5%
2  CC1(C)C(CC(=O)O)CC1c1ccc2cc(-c3nc4cc(C(=O)O)ccc4n3C3CCCCC3)ccc2n1 (stereo not shown)                   99%
3  O=C(O)c1ccc2c(c1)nc(-c1cc3ccc(-c4ccccc4-c4ccccc4)nc3cc1F)n2C1CCCCC1                 98.7%
4  COc1ccc(-c2cc(Cl)cc(Cl)c2)c(-c2ccc3cc(-c4nc5cc(C(=O)O)ccc5n4C4CCCCC4)ccc3n2)c1                  102%

What value of inhibition at 33 µM has been recorded for this entry: O=C(O)c1ccc2c(c1)nc(-c1ccc3nc(-c4ccc(Oc5ccccc5)cc4)ccc3c1)n2C1CCCCC1 98.8%

Report inhibition at 33 µM for CC(C)[C@H](NC(=O)c1ccc2c(c1)nc(-c1ccc3nc(-c4ccccc4)cnc3c1)n2C1CCCCC1)C(=O)O please. 81%

Which inhibition at 33 µM reading was recorded for the compound O=C(O)c1ccc2c(c1)nc(-c1ccc3nc(-c4cc5cccc(O)c5o4)ccc3c1)n2C1CCCCC1 ? 78.1%
